meta.source: ChEMBL document CHEMBL4483862

System: Plasmodium berghei
Assay: Luciferase/luciferin-expressing antifolate-resistant parasites were used to infect a culture of HepG2 cells that were pre-incubated with compounds. Infected hepatocytes emit light due to the luciferase reaction. Assay results are presented as the percent inhibition of light emission compared to control. […]
Type: functional
Details: sporozoite, FFLUC_HILL_SLOPE 0.633, FFLUC_R_SQUARED 0.184, HEPG2TOX_HILL_SLOPE 1.11, HEPG2TOX_R_SQUARED 0.991, PBLUC_HILL_SLOPE 1.36, PBLUC_R_SQUARED 0.55, read-out: LUCIFERASE INFECTION ASSAY - IC50
readout.kind: IC50 (µM)
Express it in µM; write the number only.

With Plasmodium berghei as the test system, provide measured IC50 for this compound: CCOC(=O)C1=C(C)N(c2ccc(Cl)cc2)C(=O)NC1c1c(F)cccc1Cl (stereo unspecified)
3.38

* * *

Tested on: Plasmodium berghei
Experiment: Luciferase/luciferin-expressing antifolate-resistant parasites were used to infect a culture of HepG2 cells that were pre-incubated with compounds. Infected hepatocytes emit light due to the luciferase reaction. Assay results are presented as the percent inhibition of light emission compared to control. […]
Format: functional
Details: sporozoite, FFLUC_HILL_SLOPE 0.318, FFLUC_R_SQUARED 0.016, read-out: LUCIFERASE INFECTION ASSAY - IC50
pIC50: −log10 of the molar value.
readout.kind: pIC50

Please list pIC50 recorded for the molecule CC(NC(=O)COc1ccc(-c2nnco2)cc1)c1ccc(Cl)cc1Cl (stereo unspecified)
< 5.00

* * *

We begin with a simple list: items and their reported IC90.
System: Plasmodium berghei
Test: Luciferase/luciferin-expressing antifolate-resistant parasites were used to infect a culture of HepG2 cells that were pre-incubated with compounds. Infected hepatocytes emit light due to the luciferase reaction. Assay results are presented as the percent inhibition of light emission compared to control. […]
Type: functional
Settings: sporozoite, read-out: LUCIFERASE INFECTION ASSAY - IC90
Dear colleague, please return just the value in µM, with no unit written.

Example cases with answers are listed next.
molecule: CCC(=O)Nc1ccc(CNC(=O)N2CCN(c3ccccc3C)CC2)cc1
output.unit: µM
IC90: 1.73

molecule: Nc1c(-c2ccccc2)c(CN2CCN(Cc3ccccc3)CC2)nn1-c1ccc(Cl)cc1
output.unit: µM
IC90: 8.97

molecule: Cc1ccc(CNCc2nc(NCc3ccc(C)cc3)c3c(C)c(C)sc3n2)cc1
output.unit: µM
IC90: 4.22

molecule: Cc1c(C(=O)OCC(=O)N(Cc2ccccc2)Cc2ccccc2)sc2nc3n(c(=O)c12)CCC3
output.unit: µM
IC90: 3.43

Query IC90 for N#Cc1ccc(OCc2nc3ccccc3n2C(F)F)cc1
4.42

* * *

System: Plasmodium berghei
Assay: Luciferase/luciferin-expressing antifolate-resistant parasites were used to infect a culture of HepG2 cells that were pre-incubated with compounds. Infected hepatocytes emit light due to the luciferase reaction. Assay results are presented as the percent inhibition of light emission compared to control. […]
Assay type: functional
Conditions: sporozoite, PBLUC_HILL_SLOPE 3.5, PBLUC_R_SQUARED 0.215, read-out: LUCIFERASE INFECTION ASSAY - IC50
readout.kind: IC50 (µM)
Write it as a number; the unit µM goes unstated.

Identify measured IC50 associated with COc1cccc(Oc2ccc(C(F)(F)F)cc2NC(=O)c2ccc(NC(=O)C3CC3)s2)c1
6.65

* * *

System: Plasmodium berghei
Test: Luciferase/luciferin-expressing antifolate-resistant parasites were used to infect a culture of HepG2 cells that were pre-incubated with compounds. Infected hepatocytes emit light due to the luciferase reaction. Assay results are presented as the percent inhibition of light emission compared to control. […]
Format: functional
Conditions: sporozoite, HEPG2TOX_HILL_SLOPE 2.88, HEPG2TOX_R_SQUARED 0.737, PBLUC_HILL_SLOPE 2.3, PBLUC_R_SQUARED 0.668, read-out: LUCIFERASE INFECTION ASSAY - IC50
readout.kind: pIC50
Keep in mind that pIC50 stands for -log10 of concentration in molar terms.

Please report pIC50 for the following compound: c1ccc(CNc2nc3cnc(-c4ccc5ccccc5c4)cc3[nH]2)cc1
5.31

* * *

Test system: Plasmodium berghei
Test: Luciferase/luciferin-expressing antifolate-resistant parasites were used to infect a culture of HepG2 cells that were pre-incubated with compounds. Infected hepatocytes emit light due to the luciferase reaction. Assay results are presented as the percent inhibition of light emission compared to control. […]
Assay type: functional
Settings: sporozoite, PBLUC_HILL_SLOPE 12.9, PBLUC_R_SQUARED 0.271, read-out: LUCIFERASE INFECTION ASSAY - IC50
readout.kind: pIC50
Formally, pIC50 is defined as -log10 of the concentration c, with c in mol/L.

Provide measured pIC50 value, entry: O=C(CN1CCC(Cc2ccccc2)CC1)NCc1ccc(F)cc1
5.46

* * *

Test system: Plasmodium berghei
Test: Luciferase/luciferin-expressing antifolate-resistant parasites were used to infect a culture of HepG2 cells that were pre-incubated with compounds. Infected hepatocytes emit light due to the luciferase reaction. Assay results are presented as the percent inhibition of light emission compared to control. […]
Assay type: functional
Conditions: sporozoite, HEPG2TOX_HILL_SLOPE 1.77, HEPG2TOX_R_SQUARED 0.837, PBLUC_HILL_SLOPE 1.16, PBLUC_R_SQUARED 0.492, read-out: LUCIFERASE INFECTION ASSAY - IC50
readout.kind: IC50 (nM)
Respond with the bare value in nM.

Look up IC50 of COc1ccc(-c2nc(C(=O)N3c4ccccc4CC3C)cs2)cc1OC (stereo unspecified) and report it.
1900

* * *

System: Plasmodium berghei
Test: Luciferase/luciferin-expressing antifolate-resistant parasites were used to infect a culture of HepG2 cells that were pre-incubated with compounds. Infected hepatocytes emit light due to the luciferase reaction. Assay results are presented as the percent inhibition of light emission compared to control. […]
Format: functional
Conditions: sporozoite, PBLUC_HILL_SLOPE 3.66, PBLUC_R_SQUARED 0.112, read-out: LUCIFERASE INFECTION ASSAY - IC50
pIC50: −log10 of the molar value.
readout.kind: pIC50

Give me measured pIC50, please, for this compound: COc1ccc(/C(C)=N/OCC(=O)O)cc1
< 4.83

* * *

Tested on: Plasmodium berghei
Assay: Luciferase/luciferin-expressing antifolate-resistant parasites were used to infect a culture of HepG2 cells that were pre-incubated with compounds. Infected hepatocytes emit light due to the luciferase reaction. Assay results are presented as the percent inhibition of light emission compared to control. […]
Type: functional
Settings: sporozoite, PBLUC_HILL_SLOPE 1.27, PBLUC_R_SQUARED 0.0564, read-out: LUCIFERASE INFECTION ASSAY - IC50
pIC50: −log10 of the molar value.
readout.kind: pIC50

State its pIC50: NC(=O)c1ccc(CN(C2CC2)S(=O)(=O)c2ccc3c(c2)CCC3)cc1
< 5.00

* * *

Test system: Plasmodium berghei
Experiment: Luciferase/luciferin-expressing antifolate-resistant parasites were used to infect a culture of HepG2 cells that were pre-incubated with compounds. Infected hepatocytes emit light due to the luciferase reaction. Assay results are presented as the percent inhibition of light emission compared to control. […]
Format: functional
Conditions: sporozoite, PBLUC_HILL_SLOPE 3.4, PBLUC_R_SQUARED 0.237, read-out: LUCIFERASE INFECTION ASSAY - IC50
readout.kind: IC50

Supply recorded IC50 for Nc1ncc(-c2ccc(F)cc2F)cc1-c1cccc(C(F)(F)F)c1 here.
7.55 µM

* * *

System: Plasmodium berghei
Assay: Luciferase/luciferin-expressing antifolate-resistant parasites were used to infect a culture of HepG2 cells that were pre-incubated with compounds. Infected hepatocytes emit light due to the luciferase reaction. Assay results are presented as the percent inhibition of light emission compared to control. […]
Assay type: functional
Settings: sporozoite, FFLUC_HILL_SLOPE 1.47, FFLUC_R_SQUARED 0.14, read-out: LUCIFERASE INFECTION ASSAY - IC50
readout.kind: IC50

Fill in reported IC50 for this entry: CCN(CC)S(=O)(=O)c1cccc(C(=O)c2c(C)c(Sc3ccc(Cl)cc3)c3ccccn23)c1
> 10 µM

* * *

Test system: Plasmodium berghei
Assay: Luciferase/luciferin-expressing antifolate-resistant parasites were used to infect a culture of HepG2 cells that were pre-incubated with compounds. Infected hepatocytes emit light due to the luciferase reaction. Assay results are presented as the percent inhibition of light emission compared to control. […]
Assay type: functional
Settings: sporozoite, HEPG2TOX_HILL_SLOPE 2.75, HEPG2TOX_R_SQUARED 0.845, PBLUC_HILL_SLOPE 8.02, PBLUC_R_SQUARED 0.305, read-out: LUCIFERASE INFECTION ASSAY - IC50
readout.kind: IC50
Could you give the number and then its unit, please?

Report IC50 from Plasmodium berghei testing of CC(C)c1ccc(/C=C/C(=O)NN=c2nc[nH]c3ccccc23)cc1
8.64 µM
